System: MS2 coat protein
protocol_notes: apparent KD of MS2 coat protein; designed switch direction (-1 OFF switch, 1 ON switch): -1; higher = weaker reporter binding
assay_setup: input ligand: none
Label scheme for apparent KD of MS2 coat protein: lower than 20 nM is not met, 20 nM and above is met.

Please check the record AUAUUGAUAGUAAGGAUAUGCGUGUGUGUAGUGAUGCAGAAGGUACAUGAGGAUCACCCAUGUAUUAAUGUGUG [LRO-BmodExc4-10-Oppy's Opus] (Eterna round: R97, puzzle: Brourd's mod of Exclusion 4) and state if its apparent KD of MS2 coat protein is at or above 20 nM.
not met

Also, AACCCUGAUGACAAAUUACAUGAGGAUCACCCAUGUGCCUCACAGGAUAUCCCAGCACGUCGCUAGGAGAAGGGUGACGCGCCA [Tienen] (Eterna round: R96, puzzle: Exclusion NG 3) please.
met

Also, ACAGAGUCAGGAUAUCGCCGUGGCAGUCUCAACCAGCGGAACGAGAAGGGACAUGAGGAUCACCCAUGUCUGUU [Eternabot (Original) Solution 36] (Eterna round: R97, puzzle: Exclusion 4) please.
not met

Also, GUCGUGUUAGGAUAUGGCGGCGGCGGCGAAAGUUGUUGUUGUUAGAAGGAACAUGAGGAUCACCCAUGUAUGAC [-26 -25.5 kcal, A 24%] (Eterna round: R97, puzzle: Exclusion 4) please.
met

Also, GCAAGCUUUAUCAAUAAGAACAUGAGGAUCACCCAUGUAUAAGGUAUUACUUUUGGGCUCUUUAGUGCUCGUCUUAU [JR_STOV1_Sub034] (Eterna round: R97, puzzle: Sensor, turn-off variant 1) please.
met

Also, GUCUACCAGCUAGGAUAUGCAGUACAGUAAAAUGUAGAAGGAGCACGAUCCAGACAUGAGGAUCACCCAUGUGGGCGGUAGGCA [Vebiena] (Eterna round: R96, puzzle: Exclusion NG 1) please.
not met

Also, UUCGCAAAAUUAGGUCCUAACAUGAGGAUCACCCAUGUUCUAGGUAAGUGCCUCCGCCCGCUAACUGUUCGUCUUGU [Eternabot (L1) Solution 36] (Eterna round: R97, puzzle: Sensor, turn-off variant 1) please.
met

Also, GCAAGCUUUUAGAUUUUCAACAUGAGGAUCACCCAUGUUCGUCUUGUGCUCGGGCUUGGGCGGUGUCCGGGUUUGGG [JL TOV1 3.76 sellena mod] (Eterna round: R97, puzzle: Sensor, turn-off variant 1) please.
met

Also, CUAUGAGUAGGAUAUGAGCCAAAAUACAUGAGGAUCACCCAUGUCGGGUUCAUGGAGGGCUCAGAAGGAUUCAAUA [Exclusion 5 - Laarte Mod2] (Eterna round: R97, puzzle: Exclusion 5) please.
not met

* * *

Assign apparent KD of K4 kissing-loop reporter to each entry below.
Tested on: K4 kissing-loop RNA reporter;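 also: bound reporter read as fluorescence of individual clusters on recovered sequencing chips by microscopy, with normalized cluster intensities fitted with a binding model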
protocol_notes: apparent KD of K4 kissing-loop reporter; higher = weaker reporter binding
assay_setup: Eterna round: R107; input ligand: FMN 200 uM
Just so you know, I need the unit written after the number.

Recorded apparent KD of K4 kissing-loop reporter of GGGAGUAGUGCGGCCGCCACUGAGAAAGAAGAAGAAUAUAGUGAUGUUAUAUAGGAAAGGAAGAACAGGACCGGGCAUUAGAUUU [SSTRyptB.F] , please.
232 nM

Also, GUACCUUGGAAACAAGGACAGCUCACCGAAGGAGCGCGUGAAAACGCAGGUAGGUCGCGGUAGCGGAGUGAUGUUCCGCGAGGGC [Same State Arginine A GF 20] please.
114 nM

Also, AGCGAUGUUUUCUCUAAGAGUGAUGUUUUUCGAGGACCGGUACGGCCGCCACUCGAAUAAAGUGUGUGGUAGUGAGCUGUUGACA [#17 K4 Tryptophan A Exclusion] please.
1150 nM

* * *

Tested on: MS2 coat protein
protocol_notes: apparent KD of MS2 coat protein; designed switch direction (-1 OFF switch, 1 ON switch): 1; higher = weaker reporter binding
assay_setup: input ligand: FMN 200 uM
Label scheme for apparent KD of MS2 coat protein: lower than 80 nM is n, 80 nM and above is y.

Please check the record AGACACAUGAGGAUCACCCAUGUCAUGAGCUUAGCUCGGGCACAGGAUAUCCGGUCCUAGAGACCGGAGAAGGGUGGCCGAAAA [Zara MOD] (Eterna round: R96, puzzle: Same State NG 3) and state if its apparent KD of MS2 coat protein is at or above 80 nM.
y

Also, GAAAGCAACGGAGGAUAUUCGCGUACGUUGGACGAAGAAGGCCGACAUGAGGAUCACCCAUGUACGAAUCACGCCAUAGCAUUA [Eternabot solution 12] (Eterna round: R96, puzzle: Same State NG 1) please.
n

Also, GUGGUCUGACAUGAGGAUCACCCAUGUGGAAUAAAUACGGGUUAGGAUAUCUUGAGGAUCACCCAAGAGAAGGGAUGGAUUGUU (Eterna round: R96, puzzle: Same State NG 3) please.
y

Also, GCCGCGUUUCGCGCCUACAUGAGGAUCACCCAUGUUUGUAGGCAGGAUAUCGCCCGCUUUGCGGGCGAGAAGGGCUGUUGUGGC [salish99_SSNG3_R04_020] (Eterna round: R96, puzzle: Same State NG 3) please.
n

Also, AAAAGAAACGCAGGAUAUGCACAUGAGGAUCACCCAUGUCCCACGGGCUCGACCGAGCCUGUGAAGCAGAAGGGUGUAAGAAAA [Erleusor] (Eterna round: R96, puzzle: Same State NG 2) please.
n

* * *

System: MS2 coat protein
protocol_notes: apparent KD of MS2 coat protein; designed switch direction (-1 OFF switch, 1 ON switch): 1; higher = weaker reporter binding
assay_setup: input ligand: microRNA oligo, concentration not stated
Assign apparent KD of MS2 coat protein to each entry below.
Please state the figure in µM; there is no need to write the unit.

Recorded apparent KD of MS2 coat protein of UGUUGUAUUACAGGAUAUCUAUUAUUUUUACUUAGAGAAGGGUAUUCACAUGAGGAUCACCCAUGUAUAUACGAGGAAGUUGUG [JMF's solution 27] (Eterna round: R96, puzzle: Same State NG 1) , please.
0.0382

Also, AUUUUUAAUGCAGGAUAUGAUUAACAUGAGGAUCACCCAUGUGGUGUUGUGAGUAAGGAGAGUGAUCAGAAGGGCAUUUUUUAU [JMF's solution 86] (Eterna round: R96, puzzle: Same State NG 2) please.
0.702

Also, UUGAAUAAUUAAGGAUAUCGAGUACAUAUGUUAAACAUGAGGAUCACCCAUGUGGGUUGCGGUAUCGAGAAGGUAAAAGAAAAG [Mat - Same State NG 2 - JL mod - D60] (Eterna round: R96, puzzle: Same State NG 2) please.
0.0219

Also, GUGGUCAGACAUGAGGAUCACCCAUGUGGAAUAAAUAAGGGACAGGAUAUUUAAUAUAGGAUAUAGAAGAAGGGUUGGUUGGUG (Eterna round: R96, puzzle: Same State NG 3) please.
0.0887

Also, GGUAGGUUACUACCAAACAUGAGGAUCACCCAUGUAAGUGGGAAGGAUAUGGUACCUUUUAGGUACCAGAAGGUCCAUAUAGUU [JL Fiskers NG3ss - 2 mod 9] (Eterna round: R96, puzzle: Same State NG 3) please.
0.141

Also, AGCUAUUAAUCAGGAUAUAGGGACAUGAGGAUCACCCAUGUGUACAUGAUAAAAUGUGAUCACGUCUAGAAGGGAUUACUAACA [SameState NG2 #39] (Eterna round: R96, puzzle: Same State NG 2) please.
0.0525

Also, GCUAGAAUAAACGCCUACAUGAGGAUCACCCAUGUAUGUAGGCAGGAUAUCGUUUGCAAAGCAAACGAGAAGGGCCUUACUAGC [Mat - Same State NG 3 - JL Mod - D32] (Eterna round: R96, puzzle: Same State NG 3) please.
0.0222

Also, AUGGUGCAGGUACAGGAUAUGUUGCUCGUAACAUGAGGAUCACCCAUGUACCUAUGAGAUUAAAUGCAGAAGGGUGCACACCACG [Quorra] (Eterna round: R96, puzzle: Same State 2) please.
0.407

Also, GGUUGUUAGUGAGGAUAUACGUACACUCUACAUGAGGAUCACCCAUGUUUUGCCCUUGAUUGUUGGUAGAAGGCACUUGGUUAU [JR_SSNG2_Sub050] (Eterna round: R96, puzzle: Same State NG 2) please.
0.0847

Also, AUUGCUUACGCAGGAUAUGAUGCGAAAAUUGCGUCAGAAGGGUGAAGUGACUCAUUGCAACAGGACAUGAGGAUCACCCAUGUC [SameState NG1 #90] (Eterna round: R96, puzzle: Same State NG 1) please.
0.305

Also, UUAAUAAUGUUAGGAUAUACAUGAGGAAUCCUCGUAGAAGGAACAUGACAUGAGGAUCACCCAUGUAGCGCUCCGAAGAGCGCA [Mat - Same State NG 1 - JL mod - D46] (Eterna round: R96, puzzle: Same State NG 1) please.
0.115

Also, UUGAAGAAUUAAGGAUAUUGAGUACAUAUGUAAAACAUGAGGAUCACCCAUGUGGGUUGCGGUAUCGAGAAGGUAAAUUACUAG [Mat - same State NG 2 - JL mod - D69] (Eterna round: R96, puzzle: Same State NG 2) please.
0.0662

Also, GAGUGGCAGUUAGGAUAUGUAGUGAUAAUGAUAACAGAAGGAACAGACAUGAGGAUCACCCAUGUAGGACUAAUCCAGAGAGAG [Parity 35 - Jieux - Same State NG 1] (Eterna round: R96, puzzle: Same State NG 1) please.
0.0257

Also, GGUGCUGUCACAGGAUAUCAUGCGGAAAUCGCGUGAGAAGGGUGGACUCUGUCAUUCACGGAGGACAUGAGGAUCACCCAUGUG [SS NG10LRO20] (Eterna round: R96, puzzle: Same State NG 1) please.
0.00567

Also, GUUACAUGAGGAUCACCCAUGUAUGUGUGGGAGUAAGUGUCUUAGGAUAUCUAUUAUUUAAUUUAAGAGAAGGAAGAUUGUUGU [JMF's solution 22] (Eterna round: R96, puzzle: Same State NG 3) please.
0.0823

Also, CCAACAUACAAUUUAAGAUCACAUGAGGAUCACCCAUGUAUGCAGGAUAUCAGCUCGAUUAGAGCUGAGAAGGGCAAUUUAAUU [SSNG3/1-A2] (Eterna round: R96, puzzle: Same State NG 3) please.
0.151

Also, GAAAUAUAACAUGAGGAUCACCCAUGUACAUUGGUACGGCGGAAGGAUAUGAAAGACAUGGUCAAUUAGAAGGUCCUAUCAAAA [Eternabot solution 50] (Eterna round: R96, puzzle: Same State NG 3) please.
0.114

The reported measurements were obtained from the supplement of paper PMC9170038.
